Measured Percent Effect, listed per entry for reference.
Test system: Wolbachia pipientis
Assay: Anti-Wolbachia Cell-Based Screen
Assay type: functional
Design: scale not given: in the data most compounds retested in dose-response had high values
Conditions: 5 µM
In all, about 48,000 compounds went through this assay and about 13,000 (27%) showed an effect of 50% or more. The list shows a part of the results.
Value expressed in %; do not type the unit.

Examples with their reported Percent Effect follow.
• Cc1ccc(CN2CC[C@@H](N3CCOCC3)[C@@H]2Cc2cccnc2)o1.O=C(O)C(F)(F)F.O=C(O)C(F)(F)F.O=C(O)C(F)(F)F = -6.789
• CCOCc1cnc2n1CCN(Cc1nc(C)cs1)C2C.O=C(O)C(F)(F)F (centres undefined) = -1.73
• CC1c2ncc(COc3cccnc3)n2CCN1C(=O)C1=CCCC1.O=C(O)C(F)(F)F (centres undefined) = 6.564
• O=C(NCCNS(=O)(=O)c1ccc2c(c1)CCCC2)c1ccoc1 = 1.057

// Percent Effect (Wolbachia pipientis) for C[C@@H]1C[C@H]2CN(C(=O)C3=CCCC3)C[C@H]2O1 = -41.87

// Percent Effect (Wolbachia pipientis) for CCOCc1cnc2n1CCN(Cc1cccs1)C2C.O=C(O)C(F)(F)F (centres undefined) = 10.91

// Percent Effect (Wolbachia pipientis) for Cc1ccsc1CN1CCn2c(COc3cccnc3)cnc2C1C.O=C(O)C(F)(F)F.O=C(O)C(F)(F)F (centres undefined) = 105.4

// Percent Effect (Wolbachia pipientis) for Cc1csc(CN2CCn3c(COc4cccnc4)cnc3C2C)n1.O=C(O)C(F)(F)F.O=C(O)C(F)(F)F (centres undefined) = 106.1

// Percent Effect (Wolbachia pipientis) for Cc1ccc(CN2CCn3c(COc4cccnc4)cnc3C2C)o1.O=C(O)C(F)(F)F.O=C(O)C(F)(F)F (centres undefined) = 105.5
